# study.system: PD-1/PD-L1 interaction (Homo sapiens, UniProt Q9NZQ7)
# Construct: Tag1 or Tag2 (undisclosed kit tag); purchased Cisbio
# Sequence (Q9NZQ7 19-238 limits assumed): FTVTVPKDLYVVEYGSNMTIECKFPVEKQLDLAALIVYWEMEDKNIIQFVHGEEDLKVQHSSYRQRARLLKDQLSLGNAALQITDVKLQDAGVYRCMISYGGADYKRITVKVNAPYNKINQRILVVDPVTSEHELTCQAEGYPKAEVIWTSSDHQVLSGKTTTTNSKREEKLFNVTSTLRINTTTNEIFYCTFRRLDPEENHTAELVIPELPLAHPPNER
# protocol.details: Cisbio PD-1/PD-L1 Homogeneous Time-Resolved Fluorescence (HTRF) binding assay
# measurement.setup: Table 8; Run: Crude; read-out: Reported IC50

{"columns": ["compound", "IC50 (µM)"],
 "data": [
  ["O=C(Cc1ccccc1)N1CCN(Cc2csc(NC[C@@H]3CCCN3Cc3ccc(Br)cc3)n2)CC1 [Compound 2463-262]", 3.1]
]}

---

List of log10 of IC50 values.
# study.system: PD-1/PD-L1 interaction (Homo sapiens, UniProt Q9NZQ7)
# Construct: Tag1 or Tag2 (undisclosed kit tag); purchased Cisbio
# protocol.details: Cisbio PD-1/PD-L1 Homogeneous Time-Resolved Fluorescence (HTRF) binding assay
# measurement.setup: Table 9; read-out: Reported IC50
# Description: The ability of compounds of the disclosure to inhibit the PD-1/PD-L1 interaction was investigated using a Cisbio PD-1/PD-L1 Homogeneous Time-Resolved Fluorescence (HTRF) binding assay (https://ca.cisbio.net/human-pd1-pd-l1-biochemical-binding-assay-44666). With the assay, the interaction between PD-L1 and PD-1 is detected by using anti-Tag1 labeled with Europium (HTRF donor) and anti-Tag2 labeled with XL665 (HTRF acceptor). […]
assay.metric: log10 of IC50 (log10 of the value in nM)

{"columns": ["compound", "measured.result"],
 "data": [
  ["COc1cc(C(=O)N2CCN(Cc3csc(NC[C@@H]4C[C@@H](O)CN4Cc4ccc(Br)cc4)n3)CC2)cc(OC)c1OC", 1.95],
  ["COc1cc(C(=O)N2CCN(Cc3csc(NC[C@H]4CCCN4Cc4ccc(Br)cc4)n3)CC2)cc(OC)c1OC", 4.11],
  ["COc1cc(CN2CCN(Cc3csc(NCC4CCCN4Cc4ccc(Br)cc4)n3)CC2)cc(OC)c1OC (stereo not shown)", 2.87],
  ["COc1cc(C(=O)N2CCN(Cc3csc(NC[C@@H]4CCCN4Cc4ccncc4)n3)CC2)cc(OC)c1OC", 4.02],
  ["COc1cc(C(=O)N2C[C@H](C)N(Cc3csc(NC[C@@H]4CCCN4Cc4ccc(Br)cc4)n3)C[C@@H]2C)cc(OC)c1OC", 1.98],
  ["COc1cc(C(=O)N2CCN(Cc3csc(NC[C@@H]4CCCN4Cc4ccc(C(F)F)cc4)n3)CC2)cc(OC)c1OC", 2.55],
  ["COc1cc(C(=O)N2CCN(Cc3csc(NC[C@@H]4CCCN4Cc4ccc(C5CC5)cc4)n3)CC2)cc(OC)c1OC", 3.96],
  ["COc1cc(C(=O)N2CCN(Cc3csc(NC[C@@H]4CCCN4Cc4ccc(C(F)(F)F)cc4)n3)CC2)cc(OC)c1OC", 2.15],
  ["COc1cc(C(=O)N2CCN(Cc3csc(NC[C@@H]4CCCN4Cc4ccccc4Br)n3)CC2)cc(OC)c1OC", 4.60],
  ["O=C(c1ccc2c(c1)OCO2)N1CCN(Cc2csc(NC[C@@H]3CCCN3Cc3ccc(Br)cc3)n2)CC1", 2.94],
  ["COc1cc(C(=O)N2CCN(Cc3csc(NC[C@@H]4CCCN4Cc4ccc(Cl)cc4)n3)CC2)cc(OC)c1OC", 2.31],
  ["COc1cc(C(=O)N2CCN(Cc3csc(NC[C@@H]4CCCN4Cc4cnc(C)s4)n3)CC2)cc(OC)c1OC", 4.41],
  ["COc1cc(C(=O)N2C[C@@H](C)N(Cc3csc(NC[C@@H]4CCCN4Cc4ccc(Br)cc4)n3)C[C@H]2C)cc(OC)c1OC", 3.20],
  ["COc1cccc(C(=O)N2CCN(Cc3csc(NC[C@@H]4CCCN4Cc4ccc(Br)cc4)n3)CC2)c1", 2.72],
  ["COc1cc(CN2CCN(Cc3csc(NCC4CCCN4C(C)c4ccc(Br)cc4)n3)CC2)cc(OC)c1OC (stereo not shown) [Compound A601]", 2.20],
  ["O=C(C1CC1)N1CCN(Cc2csc(NC[C@@H]3CCCN3Cc3ccc(Br)cc3)n2)CC1", 3.30],
  ["COc1cc(CN2CCN(Cc3csc(NCC4CCCN4C(C)c4ccc(Br)cc4)n3)CC2)cc(OC)c1OC (stereo not shown) [Compound A602]", 2.51],
  ["Cn1cnc2cc(C(=O)N3CCN(Cc4csc(NCC5CCCN5Cc5ccc(Br)cc5)n4)CC3)ccc21 (stereo not shown)", 2.99],
  ["COc1cc(C(=O)N2CCN(Cc3csc(NC[C@@H]4CCCN4Cc4ccc(Br)cc4)n3)CC2)cc(OC)c1OC", 1.71],
  ["COc1cc(C(=O)N2CCN(Cc3csc(NC[C@@H]4CCCN4Cc4ccc(S(C)(=O)=O)cc4)n3)CC2)cc(OC)c1OC", 2.84],
  ["COc1cc(C(=O)N2CCN([C@H](C)c3csc(NC[C@@H]4CCCN4Cc4ccc(Br)cc4)n3)CC2)cc(OC)c1OC", 2.04]
]}

---

List of IC50 values.
# study.system: PD-1/PD-L1 interaction (Homo sapiens)
# Construct: Tag1 or Tag2 (undisclosed kit tag); purchased Cisbio
# protocol.details: Cisbio PD-1/PD-L1 Homogeneous Time-Resolved Fluorescence (HTRF) binding assay
# measurement.setup: Table 9; same result in μM; read-out: Reported IC50
# Excerpt: The ability of compounds of the disclosure to inhibit the PD-1/PD-L1 interaction was investigated using a Cisbio PD-1/PD-L1 Homogeneous Time-Resolved Fluorescence (HTRF) binding assay (https://ca.cisbio.net/human-pd1-pd-l1-biochemical-binding-assay-44666). With the assay, the interaction between PD-L1 and PD-1 is detected by using anti-Tag1 labeled with Europium (HTRF donor) and anti-Tag2 labeled with XL665 (HTRF acceptor). […]

{"columns": ["compound", "IC50"],
 "data": [
  ["COc1cc(C(=O)N2CCN([C@H](C)c3csc(NC[C@@H]4CCCN4Cc4ccc(Br)cc4)n3)CC2)cc(OC)c1OC", "0.11 µM"],
  ["CC(=O)N1CCN(Cc2csc(NC[C@@H]3CCCN3Cc3ccc(Br)cc3)n2)CC1", "0.26 µM"],
  ["COc1cc(C(=O)N2CCN(Cc3csc(NC[C@@H]4CCCN4Cc4ccc(C)cc4)n3)CC2)cc(OC)c1OC", "3.5 µM"],
  ["COc1cc(C(=O)N2CCN(Cc3csc(N(C)C[C@@H]4CCCN4Cc4ccc(Br)cc4)n3)CC2)cc(OC)c1OC", "> 50 µM"],
  ["COc1cc(C(=O)C2CCN(Cc3csc(NC[C@@H]4CCCN4Cc4ccc(Br)cc4)n3)CC2)cc(OC)c1OC", "0.11 µM"],
  ["COc1cc(C(=O)N2CCN(Cc3csc(NC[C@@H]4CCCN4Cc4ccc(Br)c(F)c4)n3)CC2)cc(OC)c1OC", "0.092 µM"],
  ["COc1cc(CN2CCN(Cc3csc(NCC4CCCN4Cc4ccccc4)n3)CC2)cc(OC)c1OC (stereo not shown)", "> 50 µM"]
]}

---

# study.system: PD-1/PD-L1 interaction (Homo sapiens)
# Construct: Tag1 or Tag2 (undisclosed kit tag); purchased Cisbio
# protocol.details: Cisbio PD-1/PD-L1 Homogeneous Time-Resolved Fluorescence (HTRF) binding assay
# measurement.setup: Table 8; Run: Pure; read-out: Reported IC50
List of IC50 values.

{"columns": ["compound", "units.symbol", "IC50"],
 "data": [
  ["COc1cc(C(=O)N2CCN(Cc3csc(NC[C@@H]4CCCN4Cc4ccc(Br)cc4)n3)CC2)cc(OC)c1OC", "µM", 0.33],
  ["CC(Oc1ccccc1)C(=O)N1CCN(Cc2csc(NC[C@@H]3CCCN3Cc3ccc(Br)cc3)n2)CC1 (stereo partly shown)", "µM", 0.8],
  ["Cc1cnc(C(=O)N2CCN(Cc3csc(NC[C@@H]4CCCN4Cc4ccc(F)cc4)n3)CC2)cn1", "µM", 8.7],
  ["O=C(c1ccco1)N1CCN(Cc2csc(NC[C@@H]3CCCN3Cc3ccc(Br)cc3)n2)CC1", "µM", 0.87],
  ["COc1ccc(CN2CCC[C@H]2CNc2nc(CN3CCN(C(=O)CCc4nc5ccccc5[nH]4)CC3)cs2)cc1OC", "µM", 9.2],
  ["COc1cc(C(=O)N2CCN(Cc3csc(NCC4CC(OCc5ccccc5)CN4Cc4ccc(Br)cc4)n3)CC2)cc(OC)c1OC (stereo not shown)", "µM", 0.5],
  ["O=C(CCc1nc2ccccc2[nH]1)N1CCN(Cc2csc(NCC3CC(OCc4ccccc4)CN3Cc3ccc(Br)cc3)n2)CC1 (stereo not shown)", "µM", 1.6],
  ["O=C(CCc1nc2ccccc2[nH]1)N1CCN(Cc2csc(NC[C@@H]3CCCN3Cc3ccc(Br)cc3)n2)CC1", "µM", 1.9],
  ["COc1ccc(CN2CCC[C@H]2CNc2nc(CN3CCN(C(=O)c4cnc(C)cn4)CC3)cs2)cc1OC", "µM", 53],
  ["O=C(CCc1nc2ccccc2[nH]1)N1CCN(Cc2csc(NC[C@@H]3CCCN3Cc3ccc(F)cc3)n2)CC1", "µM", 7]
]}
